Examples of binders with documented koff follow.
- Target under test: SARS-CoV-2 spike S2 protein (SARS-CoV-2, UniProt P0DTC2 686-1213)
Your answer should be a plain number; it is taken to be in s⁻¹.

IN: Which value of koff has been reported for AB-009117 (antibody, V domains shown) VH: ELQLVESGGGLVKPGGSLRLSCTASGFTFISYSISWVRQAPGKGLEWVSSISSYSNYIFYGDSVKGRFNISRDNPKNSVYLQLNSLRAEDTAVYYCVRDTSFYEGGGYYNRFEPWGQGTRVTVSS VL: EIVMTQSPATLSVSPGERATLSCRASQSISINLAWYQQRPGQAPRLLIYGASTRATGIPARFSGSGSGTEFTLTISSLQSEDSAVYYCQQYNNWPPYTFGQGTTLEIK in the records?
OUT: 0.000438

IN: koff for AB-009325 (antibody, V domains shown) VH: QVQLVESGGGVVQPGRSLRLSCAASGFTFNNYGMHWVRQAPGKGLEWVALISYEGSLKYYGDSVRGRFTVSRDNSRNTLYLQMNSLRVDDTAVYYCAKAGGIFAIHYYGMNVWGQGTTVTVSS VL: QSVLTQPPSVSAAPGQKVTISCSGSSSNIGKNYVSWYRQFPGTAPKLLIYDNNKRPSGIPDRFSGSKSDTSATLGITGLQTGDEADYYCVTWDSSLSAGVFGGGTKLTVL ?
OUT: 2.77e-07

IN: Given the entry AB-009095 (antibody, V domains shown) VH: EVQLVQSGAEVKKPGESLIISCTGSGYTFATFWITWVRQMPGKGLEWLGRIDPSDSYTNYNPSFQGHVTVSVDRSINTAYLELTSLKASDTAIYYCARQMYNTGWPIPNYSDYWGQGTLVTVSS VL: QSALTQPPSASGSPGQSVTISCAGASTDVGVYNFVSWYQQHPGKAPKLIIFDVNKRPSGVPDRFSGSKSGNTASLTVSGLQAEDEADYYCSSYEVGNNFVFGTGTKVTVL , report its measured koff.
OUT: 2.15e-07
